half-life at 1 μM listing for selected molecules.
Assay: Stability in human plasma
Format: in vitro ADME
Conditions: pooled human plasma (lithium heparin), 1 μM compound, 37° C., 1 hour incubation
Structures can show the parent of a compound that is named as a salt.
Readout name: half-life at 1 μM

>>> recorded_result("CCCN(CCC)C(=O)COC(=O)CCNS(=O)(=O)c1cccc(C(=O)N2CCC3(CC2)CN/C(=N\\C(=O)c2nc(Cl)c(N)nc2N)N3)c1 [Example 1.0, succinate salt]")
"2 min"
>>> recorded_result("CCCN(CCC)C(=O)COC(=O)CCNC(=O)Nc1cccc(C(=O)N2CCC3(CC2)CN/C(=N\\C(=O)c2nc(Cl)c(N)nc2N)N3)c1")
"2 min"
>>> recorded_result("Nc1nc(N)c(C(=O)/N=C2\\NCC3(CCN(C(=O)c4cccc(S(=O)(=O)NCCC(=O)OCC(=O)N5CCCC5C(F)(F)F)c4)CC3)N2)nc1Cl (stereo not drawn)")
"28 min"

###

Below, each entry is listed alongside its reported half-life at 1 μM.
Assay: Stability in human plasma
Type: in vitro ADME
Details: pooled human plasma (lithium heparin), 1 μM compound, 37° C., 1 hour incubation
Readout name: half-life at 1 μM (min)

>>> recorded_result("Nc1nc(N)c(C(=O)/N=C2\\NCC3(CCN(C(=O)CCc4ccc(OCC(=O)OCC(=O)N5CCOCC5)cc4)CC3)N2)nc1Cl")
4
>>> recorded_result("CCCN(CCC)C(=O)COC(=O)COc1ccc(CCC(=O)N2CCC3(CC2)CN/C(=N\\C(=O)c2nc(Cl)c(N)nc2N)N3)cc1")
1
>>> recorded_result("Nc1nc(N)c(C(=O)/N=C2\\NCC3(CCN(C(=O)CCc4ccc(OCC(=O)OCC(=O)OC5CCCCC5)cc4)CC3)N2)nc1Cl")
3

###

Biological target: epithelial sodium channel (ENaC) (Homo sapiens, UniProt P37088+P51168+P51170)
Sequence (P37088 whole entry): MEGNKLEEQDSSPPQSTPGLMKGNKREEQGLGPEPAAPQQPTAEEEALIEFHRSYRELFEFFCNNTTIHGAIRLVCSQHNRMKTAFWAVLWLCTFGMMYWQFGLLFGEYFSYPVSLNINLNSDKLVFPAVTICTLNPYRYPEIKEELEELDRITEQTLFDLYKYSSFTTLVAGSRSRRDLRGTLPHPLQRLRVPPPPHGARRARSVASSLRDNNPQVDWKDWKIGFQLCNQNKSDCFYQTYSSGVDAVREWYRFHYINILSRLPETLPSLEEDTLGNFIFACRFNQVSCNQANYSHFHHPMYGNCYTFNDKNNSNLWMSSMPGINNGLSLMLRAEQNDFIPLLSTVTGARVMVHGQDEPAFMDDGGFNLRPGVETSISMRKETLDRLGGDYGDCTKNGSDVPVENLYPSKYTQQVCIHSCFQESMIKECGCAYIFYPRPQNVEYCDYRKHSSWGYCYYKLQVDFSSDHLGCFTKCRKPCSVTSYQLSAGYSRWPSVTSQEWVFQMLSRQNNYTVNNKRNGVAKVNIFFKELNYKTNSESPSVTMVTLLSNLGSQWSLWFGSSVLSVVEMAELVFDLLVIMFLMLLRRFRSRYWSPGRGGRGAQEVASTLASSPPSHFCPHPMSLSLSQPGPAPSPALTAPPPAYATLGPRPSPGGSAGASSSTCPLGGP
Sequence (P51168 whole entry): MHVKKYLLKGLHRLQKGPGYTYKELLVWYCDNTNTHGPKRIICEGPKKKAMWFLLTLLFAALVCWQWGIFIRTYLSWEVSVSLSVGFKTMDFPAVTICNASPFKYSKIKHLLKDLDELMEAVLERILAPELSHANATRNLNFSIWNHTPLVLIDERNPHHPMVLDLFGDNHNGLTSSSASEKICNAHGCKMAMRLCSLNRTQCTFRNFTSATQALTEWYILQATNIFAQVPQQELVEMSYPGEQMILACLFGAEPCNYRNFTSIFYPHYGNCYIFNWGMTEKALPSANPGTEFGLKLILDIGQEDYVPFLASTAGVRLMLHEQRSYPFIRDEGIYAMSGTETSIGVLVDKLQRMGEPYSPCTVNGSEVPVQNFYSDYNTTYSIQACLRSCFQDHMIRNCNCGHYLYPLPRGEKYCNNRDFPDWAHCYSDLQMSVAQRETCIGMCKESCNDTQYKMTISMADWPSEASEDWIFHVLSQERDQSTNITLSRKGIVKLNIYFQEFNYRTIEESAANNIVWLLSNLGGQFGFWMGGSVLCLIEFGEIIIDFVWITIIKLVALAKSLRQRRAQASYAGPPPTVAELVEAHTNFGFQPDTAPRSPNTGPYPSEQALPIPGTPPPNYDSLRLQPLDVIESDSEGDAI
Sequence (P51170 whole entry): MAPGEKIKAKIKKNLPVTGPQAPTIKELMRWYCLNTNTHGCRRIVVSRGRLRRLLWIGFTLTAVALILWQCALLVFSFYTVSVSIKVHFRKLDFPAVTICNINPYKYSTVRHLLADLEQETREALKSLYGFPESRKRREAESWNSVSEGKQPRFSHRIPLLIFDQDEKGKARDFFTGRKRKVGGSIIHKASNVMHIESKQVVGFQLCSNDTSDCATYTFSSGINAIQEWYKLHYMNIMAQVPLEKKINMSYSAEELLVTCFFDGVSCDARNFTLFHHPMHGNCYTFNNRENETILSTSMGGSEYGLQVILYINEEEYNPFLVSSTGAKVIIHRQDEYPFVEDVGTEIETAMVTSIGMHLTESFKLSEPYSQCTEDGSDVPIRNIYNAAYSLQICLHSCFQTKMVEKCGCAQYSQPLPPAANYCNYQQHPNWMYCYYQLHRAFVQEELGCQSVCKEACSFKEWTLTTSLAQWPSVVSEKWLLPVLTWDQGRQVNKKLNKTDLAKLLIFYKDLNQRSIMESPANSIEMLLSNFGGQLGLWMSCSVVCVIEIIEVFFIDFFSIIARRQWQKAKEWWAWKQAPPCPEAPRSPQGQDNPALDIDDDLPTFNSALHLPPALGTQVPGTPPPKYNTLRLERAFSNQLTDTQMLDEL
Assay: Short circuit current (ISC) measurements in Human Bronchial Epithelial cells (HBEC-ENaC)
Conditions: inhibition of amiloride-sensitive ISC, HBECs at air-liquid interface, Ussing chamber, apical addition
Structures can show the parent of a compound that is named as a salt.
Lab note: anything with IC50 below 90 nM is marked fulfilled; values at 90 nM or higher are marked not fulfilled.

>>> cat("CCCN(CCC)C(=O)COC(=O)COc1ccc(CCC(=O)N2CCC3(CC2)CN/C(=N\\C(=O)c2nc(Cl)c(N)nc2N)N3)cc1Cl [Example 3.0]")
"fulfilled"
>>> cat("Nc1nc(N)c(C(=O)/N=C2\\NCC3(CCN(C(=O)CCc4ccc(OCC(=O)OCC(=O)OCc5ccccc5)cc4)CC3)N2)nc1Cl [Example 2.2]")
"fulfilled"
>>> cat("CCCN(CCC)C(=O)COC(=O)CCNC(=O)Nc1cccc(C(=O)N2CCC3(CC2)CN/C(=N\\C(=O)c2nc(Cl)c(N)nc2N)N3)c1 [Example 5.1]")
"fulfilled"
>>> cat("Nc1nc(N)c(C(=O)/N=C2\\NCC3(CCN(C(=O)c4cccc(S(=O)(=O)NCCC(=O)OCC(=O)OC5CCCCC5)c4)CC3)N2)nc1Cl [Example 1.3]")
"fulfilled"
>>> cat("Nc1nc(N)c(C(=O)/N=C2\\NCC3(CCN(C(=O)CCc4ccc(OCC(=O)OCCN5CCCCC5=O)c(Cl)c4)CC3)N2)nc1Cl [Example 4.1]")
"not fulfilled"
>>> cat("CCCN(CCC)C(=O)COC(=O)COc1ccc(CCC(=O)N2CCC3(CC2)CN/C(=N\\C(=O)c2nc(Cl)c(N)nc2N)N3)cc1 [Example 2.0]")
"fulfilled"
>>> cat("CCCN(CCC)C(=O)COC(=O)CCNS(=O)(=O)c1cccc(C(=O)N2CCC3(CC2)CN/C(=N\\C(=O)c2nc(Cl)c(N)nc2N)N3)c1 [Example 1.0, succinate salt]")
"fulfilled"
>>> cat("Nc1nc(N)c(C(=O)/N=C2\\NCC3(CCN(C(=O)CCc4ccc(OCC(=O)OCC(=O)N5CCOCC5)cc4)CC3)N2)nc1Cl [Example 4.2]")
"not fulfilled"
>>> cat("Nc1nc(N)c(C(=O)/N=C2\\NCC3(CCN(C(=O)CCc4ccc(OCC(=O)OCC(=O)N5CCCCC5)cc4)CC3)N2)nc1Cl [Example 2.4]")
"not fulfilled"
>>> cat("Nc1nc(N)c(C(=O)/N=C2\\NCC3(CCN(C(=O)CCc4ccc(OCC(=O)OCC(=O)OC5CCCCC5)cc4)CC3)N2)nc1Cl [Example 1.2]")
"fulfilled"
>>> cat("Nc1nc(N)c(C(=O)/N=C2\\NCC3(CCN(C(=O)c4cccc(S(=O)(=O)NCC5(C(=O)OCC(=O)N6CCCC6C(F)(F)F)CCC5)c4)CC3)N2)nc1Cl (centres unmarked) [Example 5.2]")
"fulfilled"
>>> cat("Nc1nc(N)c(C(=O)/N=C2\\NCC3(CCN(C(=O)c4cccc(S(=O)(=O)NCCC(=O)OCC(=O)N5CCCC5C(F)(F)F)c4)CC3)N2)nc1Cl (centres unmarked) [Example 4.0]")
"not fulfilled"
>>> cat("CN(CCO)C(=O)COC(=O)COc1ccc(CCC(=O)N2CCC3(CC2)CN/C(=N/C(=O)c2nc(Cl)c(N)nc2N)N3)cc1 [Example 1.1]")
"not fulfilled"
